# protocolText: In vitro therapeutic index (aerobic IC50 / hypoxic C1.6)
# Assay type: cell-based, Cricetulus griseus
# assaySetup: chinese hamster, CHO-AA8 cells; read-out: TI
quantity: selectivity ratio
API note: the answer field is a bare number with no unit suffix.

Cc1ncc([N+](=O)[O-])n1CCO ... 1.7
O=C(CCCn1ccnc1[N+](=O)[O-])NCCn1ccnc1[N+](=O)[O-] ... 1.7

Measured selectivity ratio, Cc1ncc([N+](=O)[O-])n1CCNC(=O)Cn1c([N+](=O)[O-])cnc1C : 2.8

For Cc1ncc([N+](=O)[O-])n1CCNC(=O)CCCCn1ccnc1[N+](=O)[O-] the compound record lists selectivity ratio as 4

Given item Cc1ncc([N+](=O)[O-])n1CCNC(=O)CCCCCn1ccnc1[N+](=O)[O-] , the value recorded as its selectivity ratio is 1.2

response.value for Cc1ncc([N+](=O)[O-])n1CCNC(=O)CCn1ccnc1[N+](=O)[O-] (field: selectivity ratio) = 7.9

selectivity ratio measured on Cc1ncc([N+](=O)[O-])n1CCNC(=O)Cn1ccnc1[N+](=O)[O-] = 4.3

Item: Cc1ncc([N+](=O)[O-])n1CCNC(=O)CCCn1ccnc1[N+](=O)[O-] | selectivity ratio: 11

---

# Test system: CHO-AA8
# protocolText: Average intracellular compound concentration when the hypoxic SER=1.6.
# Assay type: functional, Cricetulus griseus
quantity: C1.6

The examples below pair each entry with its known result.
Cc1ncc([N+](=O)[O-])n1CCNC(=O)Cn1c([N+](=O)[O-])cnc1C ... 4.1 mM
O=C(CCCn1ccnc1[N+](=O)[O-])NCCn1cncc1[N+](=O)[O-] ... 0.27 mM
Cc1ncc([N+](=O)[O-])n1CCNC(=O)CCCCn1ccnc1[N+](=O)[O-] ... 0.48 mM
Cc1ncc([N+](=O)[O-])n1CCNC(=O)CCCCCn1ccnc1[N+](=O)[O-] ... 0.36 mM
Cc1ncc([N+](=O)[O-])n1CCNC(=O)CCCn1ccnc1[N+](=O)[O-] ... 0.21 mM

response.value for Cc1ncc([N+](=O)[O-])n1CCNC(=O)Cn1ccnc1[N+](=O)[O-] (field: C1.6) = 0.54 mM

Noted for Cc1ncc([N+](=O)[O-])n1CCNC(=O)CCn1ccnc1[N+](=O)[O-] : its C1.6 reads 0.42 mM

The compound O=C(CCCn1ccnc1[N+](=O)[O-])NCCn1cnc([N+](=O)[O-])c1 showed C1.6 equal to >0.36 mM

---

# System: UV4
# protocolText: Aerobic cytotoxicity against UV4 cells in a growth inhibition microassay
# Format: functional, Cricetulus griseus
Listing of recorded Hypersensitivity factor by entry.
Number only, please.

Check out these entries, answers already filled in.
COCC(O)Cn1ccnc1[N+](=O)[O-] (stereo not given) ... 1.4
O=C(CCn1ccnc1[N+](=O)[O-])NCCCn1ccnc1[N+](=O)[O-] ... 1.2
Cc1ncc([N+](=O)[O-])n1CCNC(=O)CCn1ccnc1[N+](=O)[O-] ... 0.9
Cc1ncc([N+](=O)[O-])n1CCNC(=O)CCCCn1ccnc1[N+](=O)[O-] ... 1.2
Cc1ncc([N+](=O)[O-])n1CCNC(=O)CCCn1ccnc1[N+](=O)[O-] ... 1.4

The reported Hypersensitivity factor of the molecule O=[N+]([O-])c1nccn1CC(O)CNCCBr (stereo not given) was 5.9

The molecule listed as Cc1ncc([N+](=O)[O-])n1CCO has a reported Hypersensitivity factor of 1

Cc1ncc([N+](=O)[O-])n1CCNC(=O)Cn1ccnc1[N+](=O)[O-] yielded Hypersensitivity factor of 1

Lab book: Hypersensitivity factor of Cc1ncc([N+](=O)[O-])n1CCNC(=O)Cn1c([N+](=O)[O-])cnc1C noted as 1

Quick note, Hypersensitivity factor for O=C(CCCn1ccnc1[N+](=O)[O-])NCCn1ccnc1 landed at 1.3
